Test system: recombinant NL-Rluc virus (NL4-3 with Renilla Luciferase gene) in MT-2 cells
test: Inhibition of HIV replication (NL-Rluc luciferase reporter virus, MT-2 cells)
Format: cell-based, human immunodeficiency virus (HIV)
assayContext: NL43, 120 h, read-out: Activity
pEC50: −log10 of the molar value. Where a name gives a salt, the structure may show the parent alone.
experimentalReadout: pEC50

molecule	experimentalReadout	testValue
CC(=O)Nc1ccc(-c2c(C(OC(C)(C)C)C(=O)O)c(C)nc3cc(-c4ccccc4)nn23)cc1 (stereo not shown)	pEC50	< 6.00
Cc1nc2c(-c3ccc4c(cnn4C)c3)c(-c3ccccc3)nn2c(-c2cc(F)c3c(c2C)CCCO3)c1[C@H](OC(C)(C)C)C(=O)O	pEC50	6.00 to 7.00
Cc1nc2c(-c3cccc(Cl)c3)c(-c3ccccc3)nn2c(-c2cc(F)c3c(c2C)CCCO3)c1[C@H](OC(C)(C)C)C(=O)O	pEC50	6.00 to 7.00
Cc1nc2cc(-c3ccccc3)nn2c(-c2cccc3ncccc23)c1C(OC(C)(C)C)C(=O)O (stereo not shown)	pEC50	< 6.00
Cc1nc2cc(-c3ccc(Oc4ccccc4)cc3)nn2c(-c2ccc3c(c2)CCCO3)c1C(OC(C)(C)C)C(=O)O (stereo not shown) [Example 112, TFA salt]	pEC50	6.00 to 7.00
Cc1nc2cc(-c3ccccc3)nn2c(-c2ccc(F)c(F)c2)c1C(OC(C)(C)C)C(=O)O (stereo not shown)	pEC50	< 6.00
COc1cccc(-c2c(C(OC(C)(C)C)C(=O)O)c(C)nc3cc(-c4ccccc4)nn23)c1 (stereo not shown)	pEC50	< 6.00
COc1ccc(-c2c(C(OC(C)(C)C)C(=O)O)c(C)nc3cc(-c4ccccc4)nn23)c(Cl)c1 (stereo not shown)	pEC50	< 6.00

Summary for this molecule, Cc1cccc(-c2cccc(-c3cc4nc(C)c([C@H](OC(C)(C)C)C(=O)O)c(-c5cc(F)c6c(c5C)CCCO6)n4n3)c2)c1 [Example 130, TFA salt] : pEC50 is > 7.00

Summary for this molecule, `Cc1nc2cc(-c3cccc(-c4ccccc4C(F)(F)F)c3)nn2c(-c2cc(F)c3c(c2C)CCCO3)c1[C@H](OC(C)(C)C)C(=O)O` : pEC50 is > 7.00

Summary for this molecule, Cc1nc2cc(-c3cccc(-c4ccc(F)cc4)c3)nn2c(-c2cc(F)c3c(c2C)CCCO3)c1[C@H](OC(C)(C)C)C(=O)O [Example 124, TFA salt] : pEC50 is > 7.00

Summary for this molecule, Cc1ccccc1-c1cc2nc(C)c(C(OC(C)(C)C)C(=O)O)c(-c3cc(F)c4c(c3C)CCCO4)n2n1 (stereo not shown) [Example 98, TFA salt] : pEC50 is < 6.00

Summary for this molecule, Cc1nc2cc(-c3cccc(OCc4ccc(F)cc4)c3)nn2c(-c2cc(F)c3c(c2C)CCCO3)c1C(OC(C)(C)C)C(=O)O (stereo not shown) [Example 101, TFA salt] : pEC50 is > 7.00

###

EC50 values, listed per item
Tested on: recombinant NL-Rluc virus (NL4-3 with Renilla Luciferase gene) in MT-2 cells
test: Inhibition of HIV replication (NL-Rluc luciferase reporter virus, MT-2 cells)
Assay type: cell-based, human immunodeficiency virus (HIV)
assayContext: NL43, 120 h, read-out: Activity

Summary for this molecule, `Cc1nc2cc(-c3cccc(OCc4ccccc4)c3)nn2c(-c2cc(F)c3c(c2C)CCCO3)c1[C@H](OC(C)(C)C)C(=O)O` : EC50 is < 100 nM

Summary for this molecule, Cc1nc2cc(-c3ccccc3)nn2c(-c2ccc3[nH]ccc3c2)c1C(OC(C)(C)C)C(=O)O (centres unmarked) : EC50 is > 1000 nM

Summary for this molecule, Cc1nc2cc(-c3ccccc3)nn2c(-c2ccc(C(C)C)cc2)c1C(OC(C)(C)C)C(=O)O (centres unmarked) : EC50 is > 1000 nM

Summary for this molecule, Cc1nc2cc(-c3ccccc3)nn2c(-c2ccc3c(c2)CCCO3)c1C(OC(C)(C)C)C(=O)O (centres unmarked) : EC50 is 100 to 1000 nM

Summary for this molecule, `Cc1nc2cc(-c3cccc(-c4ccc5c(cnn5C)c4)c3)nn2c(-c2cc(F)c3c(c2C)CCCO3)c1[C@H](OC(C)(C)C)C(=O)O` : EC50 is < 100 nM

###

EC50 values, listed per item
Tested on: recombinant NL-Rluc virus (NL4-3 with Renilla Luciferase gene) in MT-2 cells
test: Inhibition of HIV replication (NL-Rluc luciferase reporter virus, MT-2 cells)
Assay type: cell-based, human immunodeficiency virus (HIV)
assayContext: NL43, 120 h, read-out: Activity

Recorded EC50, per entry:
compound	testValue
Cc1cc(-c2cccc(-c3cc4nc(C)c([C@H](OC(C)(C)C)C(=O)O)c(-c5cc(F)c6c(c5C)CCCO6)n4n3)c2)ccc1F [Example 165]	< 100 nM
Cc1nc2cc(-c3ccccc3)nn2c(-c2cc(F)c3c(c2C)CCCO3)c1[C@H](OC(C)(C)C)C(=O)O [Example 39]	< 100 nM
Cc1nc2cc(-c3ccccc3)nn2c(-c2ccc(C#N)cc2)c1C(OC(C)(C)C)C(=O)O (stereo not shown) [Example 13]	> 1000 nM

Summary for this compound, Cc1nc2cc(-c3ccccc3)nn2c(-c2cccc3cccnc23)c1C(OC(C)(C)C)C(=O)O (stereo not shown) [Example 69] : EC50 is > 1000 nM

###

System: recombinant NL-Rluc virus (NL4-3 with Renilla Luciferase gene) in MT-2 cells
test: Inhibition of HIV replication (NL-Rluc luciferase reporter virus, MT-2 cells)
Assay type: cell-based, human immunodeficiency virus (HIV)
assayContext: NL43, 120 h, read-out: Activity
pEC50: −log10 of the molar value. Structures can show the parent of a compound that is named as a salt.
pEC50 values, listed per item

Recorded pEC50, per entry:
> print(dat)
                                   compound                                systemname  experimentalreadout  testvalue
1  Cc1nc2cc(-c3ccccc3)nn2c(-c2ccc(Cl)c(F)c2)c1C(OC(C)(C)C)C(=O)O (stereo not shown) [Example 86]  recombinant NL-Rluc virus (NL4-3 with Renilla Luciferase gene) in MT-2 cells                pEC50     < 6.00
2  COc1ccccc1-c1cccc(-c2cc3nc(C)c([C@H](OC(C)(C)C)C(=O)O)c(-c4cc(F)c5c(c4C)CCCO5)n3n2)c1 [Example 116]  recombinant NL-Rluc virus (NL4-3 with Renilla Luciferase gene) in MT-2 cells                pEC50     > 7.00
3  Cc1nc2cc(-c3ccccc3)nn2c(-c2ccc3c(c2)CCC3)c1C(OC(C)(C)C)C(=O)O (stereo not shown) [Example 2]  recombinant NL-Rluc virus (NL4-3 with Renilla Luciferase gene) in MT-2 cells                pEC50     < 6.00
4  Cc1nc2cc(-c3ccccc3)nn2c(-c2cccc3[nH]ccc23)c1C(OC(C)(C)C)C(=O)O (stereo not shown) [Example 72]  recombinant NL-Rluc virus (NL4-3 with Renilla Luciferase gene) in MT-2 cells                pEC50     < 6.00

Summary for this compound, Cc1nc2cc(-c3ccccc3)nn2c(-c2ccc3cn[nH]c3c2)c1C(OC(C)(C)C)C(=O)O (stereo not shown) [Example 76] : pEC50 is < 6.00

Summary for this compound, Cc1nc2cc(-c3cccc(-c4cccnc4)c3)nn2c(-c2cc(F)c3c(c2C)CCCO3)c1[C@H](OC(C)(C)C)C(=O)O [Example 119] : pEC50 is > 7.00

Summary for this compound, Cc1ccc(-c2c(C(OC(C)(C)C)C(=O)O)c(C)nc3cc(-c4ccccc4)nn23)cc1 (stereo not shown) [Example 41, TFA salt] : pEC50 is 6.00 to 7.00

###

System: recombinant NL-Rluc virus (NL4-3 with Renilla Luciferase gene) in MT-2 cells
test: Inhibition of HIV replication (NL-Rluc luciferase reporter virus, MT-2 cells)
Type: cell-based, human immunodeficiency virus (HIV)
assayContext: NL43, 120 h, read-out: EC50 μM
Where a name gives a salt, the structure may show the parent alone.
# note: exactly 2 µM is not below, so it is no; use yes for EC50 strictly under it

compound	qualitativeLabel
Cc1nc2c(-c3ccccc3)cnn2c(-c2cc(F)c3c(c2C)CCCO3)c1C(OC(C)(C)C)C(=O)O (stereo not drawn) [Example 44, TFA salt]	no
COc1ccncc1-c1cccc(-c2nn3c(-c4cc(F)c5c(c4C)CCCO5)c([C@H](OC(C)(C)C)C(=O)O)c(C)nc3c2C)c1 [Example 160]	yes
Cc1nc2cc(-c3ccccc3)nn2c(-c2ccc(C(C)C)cc2)c1C(OC(C)(C)C)C(=O)O (stereo not drawn) [Example 57]	yes
Cc1nc2cc(-c3ccnc(OCc4ccccc4)c3)nn2c(-c2cc(F)c3c(c2C)CCCO3)c1C(OC(C)(C)C)C(=O)O (stereo not drawn) [Example 107, TFA salt]	yes
Cc1nc2cc(-c3ccccc3)nn2c(C)c1C(OC(C)(C)C)C(=O)O (stereo not drawn) [Example 43, TFA salt]	no

Could you now look at the following compound, please?
Consider Cc1ccc(-c2cc3nc(C)c(C(OC(C)(C)C)C(=O)O)c(-c4ccc5c(c4)CCCO5)n3n2)cc1 (stereo not drawn) [Example 47] . Does its EC50 lie strictly below 2 µM? yes
